Data origin: paper PMC10009108

- Test system: Pseudomonas aeruginosa (ATCC-15442)
- MEASUREMENT DESCRIPTION: Antibacterial assay, micro broth dilution
- Format: cell-based
- ASSAY SETUP: ATCC15442
Record form. Attribute: MIC. Fill in for each entry.
Note to self: number, then unit, no commentary.

1) O=C(O)c1cn(C2CC2)c2cc(N3CCNCC3)c(F)cc2c1=O [Ciprofloxacin, reference compound] = 3.12 µg/mL

Would you mind giving MIC for every compound in the list below?
1. Oc1ccc(C=Nn2c(Cc3c[nH]c4ccccc34)n[nH]c2=S)cc1 [Compound 5e]
2. Oc1cccc(C=Nn2c(Cc3c[nH]c4ccccc34)n[nH]c2=S)c1 [Compound 5a]
3. COc1cccc(C=Nn2c(Cc3c[nH]c4ccccc34)n[nH]c2=S)c1 [Compound 5b]

3.12 µg/mL
12.5 µg/mL
12.5 µg/mL

====

- MEASUREMENT DESCRIPTION: DPPH free radical scavenging assay
- ASSAY SETUP: at 50 μg/mL
MEASURED ATTRIBUTE: %DPPH inhibition (% free radical scavenging) (%)
Answers are plain numbers, in %.

1. O=[N+]([O-])c1ccc(C=Nn2c(Cc3c[nH]c4ccccc34)n[nH]c2=S)cc1 [Compound 5d] = 11.1
2. S=c1[nH]nc(Cc2c[nH]c3ccccc23)n1N=Cc1ccc(Cl)cc1 [Compound 5c] = 11.1
3. COc1cccc(C=Nn2c(Cc3c[nH]c4ccccc34)n[nH]c2=S)c1 [Compound 5b] = 32

Here is another compound to look at.
// field: %DPPH inhibition (% free radical scavenging); key: Oc1ccc(C=Nn2c(Cc3c[nH]c4ccccc34)n[nH]c2=S)cc1 [Compound 5e] ; value = 8.3

====

- System: MRSA
- MEASUREMENT DESCRIPTION: Antibacterial assay, resistant strains
- Format: cell-based
- ASSAY SETUP: Staphylococcus aureus, resistant strain
MEASURED ATTRIBUTE: MIC (µg/mL)
Numbers only, in µg/mL.

1) O=C(O)c1cn(C2CC2)c2cc(N3CCNCC3)c(F)cc2c1=O [Ciprofloxacin, reference compound] = 3.12
2) COc1cccc(C=Nn2c(Cc3c[nH]c4ccccc34)n[nH]c2=S)c1 = 12.5
3) S=c1[nH]nc(Cc2c[nH]c3ccccc23)n1N=Cc1ccc(Cl)cc1 = 12.5

Here is another compound to look at.
// field: MIC; key: `Oc1cccc(C=Nn2c(Cc3c[nH]c4ccccc34)n[nH]c2=S)c1` ; value = 12.5

====

- System: Escherichia coli (ATCC-25922)
Record form. Attribute: MIC. Fill in for each entry.
Give bare numbers, in µg/mL.

Consider the reported MIC for these compounds:
1) O=[N+]([O-])c1ccc(C=Nn2c(Cc3c[nH]c4ccccc34)n[nH]c2=S)cc1 [Compound 5d] = 25
2) O=C(O)c1cn(C2CC2)c2cc(N3CCNCC3)c(F)cc2c1=O [Ciprofloxacin, reference compound] = 3.12
3) Oc1ccc(C=Nn2c(Cc3c[nH]c4ccccc34)n[nH]c2=S)cc1 [Compound 5e] = 25

Here is another compound to look at.
The compound S=c1[nH]nc(Cc2c[nH]c3ccccc23)n1N=Cc1ccc(Cl)cc1 [Compound 5c] , tested on Escherichia coli (ATCC-25922), showed MIC of 25

====

- Test system: Aspergillus niger (FCBP-0198)
- MEASUREMENT DESCRIPTION: Antifungal disc diffusion assay
- Type: cell-based
- Parameters: key: --- = no anti-fungal activity
- ASSAY SETUP: 20 μg/disc
MEASURED ATTRIBUTE: Zone of inhibition, A. niger

1) S=c1[nH]nc(Cc2c[nH]c3ccccc23)n1N=Cc1cccc(Cl)c1 = ---
2) Oc1ccc(C=Nn2c(Cc3c[nH]c4ccccc34)n[nH]c2=S)cc1 = ---
3) COc1cc(C=Nn2c(Cc3c[nH]c4ccccc34)n[nH]c2=S)cc(OC)c1OC = ---
4) Oc1cccc(C=Nn2c(Cc3c[nH]c4ccccc34)n[nH]c2=S)c1 = ---
5) O=[N+]([O-])c1ccc(C=Nn2c(Cc3c[nH]c4ccccc34)n[nH]c2=S)cc1 = ---

Would you mind giving Zone of inhibition, A. niger for every molecule in the list below?
1. S=c1[nH]nc(Cc2c[nH]c3ccccc23)n1N=Cc1ccc(Cl)cc1
2. COc1cccc(C=Nn2c(Cc3c[nH]c4ccccc34)n[nH]c2=S)c1

---
---

====

- MEASUREMENT DESCRIPTION: in vivo
MEASURED ATTRIBUTE: LC50 at 24 h

Consider the reported LC50 at 24 h for these compounds:
1. S=c1[nH]nc(Cc2c[nH]c3ccccc23)n1N=Cc1ccc(Cl)cc1 = 5.7 µg/mL
2. S=c1[nH]nc(Cc2c[nH]c3ccccc23)n1N=Cc1cccc(Cl)c1 = 5.7 µg/mL
3. COc1cc(C=Nn2c(Cc3c[nH]c4ccccc34)n[nH]c2=S)cc(OC)c1OC = 18.2 µg/mL
4. Oc1cccc(C=Nn2c(Cc3c[nH]c4ccccc34)n[nH]c2=S)c1 = 11.2 µg/mL
5. COc1cccc(C=Nn2c(Cc3c[nH]c4ccccc34)n[nH]c2=S)c1 = 14.1 µg/mL
6. Oc1ccc(C=Nn2c(Cc3c[nH]c4ccccc34)n[nH]c2=S)cc1 = 14.1 µg/mL
7. COc1cccc2c1C(=O)c1c(O)c3c(c(O)c1C2=O)C[C@@](O)(C(=O)CO)C[C@@H]3O[C@H]1C[C@H](N)[C@H](O)[C@H](C)O1 [Doxorubicin, reference compound] = 5.7 µg/mL

// field: LC50 at 24 h; key: `O=[N+]([O-])c1ccc(C=Nn2c(Cc3c[nH]c4ccccc34)n[nH]c2=S)cc1` ; value = 5.7 µg/mL

====

- Test system: Streptomyces 85 E strains
- MEASUREMENT DESCRIPTION: Protein kinase inhibition assay
- Format: cell-based
- Design: key: Active = Bacterial activity; --- = no activity
- ASSAY SETUP: Sample Concentration = 20 μg/mL; Surfactin B 20 μg/mL
MEASURED ATTRIBUTE: Clear zone

1. S=c1[nH]nc(Cc2c[nH]c3ccccc23)n1N=Cc1cccc(Cl)c1 = ---
2. Oc1ccc(C=Nn2c(Cc3c[nH]c4ccccc34)n[nH]c2=S)cc1 = ---
3. O=[N+]([O-])c1ccc(C=Nn2c(Cc3c[nH]c4ccccc34)n[nH]c2=S)cc1 = ---
4. Oc1cccc(C=Nn2c(Cc3c[nH]c4ccccc34)n[nH]c2=S)c1 = 6 mm
5. COc1cccc(C=Nn2c(Cc3c[nH]c4ccccc34)n[nH]c2=S)c1 = 7.5 mm

The molecule `S=c1[nH]nc(Cc2c[nH]c3ccccc23)n1N=Cc1ccc(Cl)cc1` , tested on Streptomyces 85 E strains, showed Clear zone of ---

====

- System: Streptomyces 85 E strains
- MEASUREMENT DESCRIPTION: Protein kinase inhibition assay
- Type: cell-based
- ASSAY SETUP: Sample Concentration = 20 μg/mL; Surfactin B 20 μg/mL
MEASURED ATTRIBUTE: Bald zone (mm)
Answers are plain numbers, in mm.

1. COc1cc(C=Nn2c(Cc3c[nH]c4ccccc34)n[nH]c2=S)cc(OC)c1OC = 7.5

Would you mind giving Bald zone for every molecule in the list below?
1. COc1cccc(C=Nn2c(Cc3c[nH]c4ccccc34)n[nH]c2=S)c1
2. Oc1cccc(C=Nn2c(Cc3c[nH]c4ccccc34)n[nH]c2=S)c1

10.5
9

====

Record form. Attribute: MIC. Fill in for each entry.
- System: Klebsiella pneumoniae (ATCC-1705)
- MEASUREMENT DESCRIPTION: Antibacterial assay, micro broth dilution
- Format: cell-based
- ASSAY SETUP: ATCC1705
- Text: The micro broth dilution method was used to establish the antibacterial potential of test samples against Staphylococcus aureus (ATCC-6538), Bacillus subtilis (ATCC-6633), Escherichia coli (ATCC-25922), Klebsiella pneumoniae (ATCC-1705), and Pseudomonas aeruginosa (ATCC-15442) and for the resistant strains of MRSA Staphylococcus aureus, P. aeruginosa and Escherichia coli. The procedure used is described by ([Sarker et al., 2007]). […]
Give bare numbers, in µg/mL.

Consider the reported MIC for these compounds:
1. COc1cc(C=Nn2c(Cc3c[nH]c4ccccc34)n[nH]c2=S)cc(OC)c1OC = 6.25
2. O=[N+]([O-])c1ccc(C=Nn2c(Cc3c[nH]c4ccccc34)n[nH]c2=S)cc1 = 12.5
3. Oc1ccc(C=Nn2c(Cc3c[nH]c4ccccc34)n[nH]c2=S)cc1 = 12.5

Would you mind giving MIC for every compound in the list below?
1. Oc1cccc(C=Nn2c(Cc3c[nH]c4ccccc34)n[nH]c2=S)c1
2. O=C(O)c1cn(C2CC2)c2cc(N3CCNCC3)c(F)cc2c1=O [Ciprofloxacin, reference compound]
3. S=c1[nH]nc(Cc2c[nH]c3ccccc23)n1N=Cc1ccc(Cl)cc1

[12.5, 3.12, 12.5]

Would you mind giving MIC for every compound in the list below?
1. COc1cccc(C=Nn2c(Cc3c[nH]c4ccccc34)n[nH]c2=S)c1
2. S=c1[nH]nc(Cc2c[nH]c3ccccc23)n1N=Cc1cccc(Cl)c1

1. 6.25
2. 3.12
